The entries below come with measured growth values attached.
Test system: CAKI-1 renal
ASSAY_REMARKS: NCI-60 one-dose screen, 48 h (100 = growth as untreated, 0 = no growth, -100 = all killed)
TEST_SETTINGS: 10 µM unless noted
About 83,000 compounds went through this panel and 20% of them were active in at least one assay; those are over-represented in the sample as a whole.
# unit: % | format: bare number

Previously resolved entries follow.
Query: Could you tell me which growth is on file for `O=C(O)CCN1C(=O)/C(=C/C(Cl)=C/c2ccccc2)SC1=S` ?
Result: 23.8

Query: Given the compound `CCOC(=O)n1ccn(C)c1=S` , what is its reported growth?
Result: 95.4

Query: Data request, read-out growth, for CCN1C(=S)N(c2ccccc2)C2NC(=S)N(/N=C/C=C/c3ccccc3OC)C21 (stereo not given)
Result: 27.7

Continuing:
Query: // returns reported growth for input `O=C(O)CCCN1C(=O)/C(=C/c2cn(-c3ccccc3)nc2-c2ccc([N+](=O)[O-])cc2)SC1=S`
Result: 65.1

Query: Request the reported growth associated with `CCOC(=O)c1cc2c(n1C)-c1nc(NC(C)=O)sc1CCC2`
Result: 76.4

Query: What growth value was documented for this compound, `Cc1ccc(-c2nc(N3CCCNCC3)c3oc(-c4ccc(C)cc4)nc3n2)cc1` ?
Result: 108

Query: So what does the record say about growth for `COCCOc1cc2ncnc(N3CCN(c4cc(S(C)(=O)=O)c(C)cc4Cl)CC3)c2cc1OCCOC` ?
Result: 101

Query: Suppose we examine the compound `Cc1ccc(NC(=O)Cn2cc(CN3CCN(c4ccnc5cc(Cl)ccc45)CC3)nn2)cc1` ; what growth value has been reported?
Result: 73.1

Query: // returns reported growth for input `COc1ccc(C(=O)Nc2cccc(-c3cc(=O)c4c(OC)c(OC)c(OC)cc4o3)c2)cc1`
Result: 57.4

Query: Sample `O=C(CSc1nc2ccc([N+](=O)[O-])cc2[nH]1)Nc1ccc([N+](=O)[O-])cc1` — what was its growth?
Result: 12.7

###

Test system: TK-10 renal
ASSAY_REMARKS: NCI-60 one-dose screen, 48 h (100 = growth as untreated, 0 = no growth, -100 = all killed)
TEST_SETTINGS: 10 µM unless noted
About 83,000 compounds went through this panel and 20% of them were active in at least one assay; those are over-represented in the sample as a whole. Active and inactive are the calls of the source. Rule for the calls: active = growth percent below 10; inactive = the rest.
Documented growth across a set of molecules

Query: Please report the recorded growth for `CCCCNC(=O)Oc1ccc(/C(=C(/C)Cc2ccc(OC)cc2)c2ccc(OCCN(CC)CC)cc2)cc1` .
Result: 79.7% (inactive)

Continuing:
Query: Can you share its growth? I mean this molecule: `CCN(CC)S(=O)(=O)c1ccc(S(=O)(=O)N2CCC[C@@H](C(=O)N3CCN(c4nc(C(C)C)no4)CC3)C2)cc1`
Result: 74.5% (inactive)

Query: What does the record list as growth for `C=CCOC(=O)Nc1cccn([C@H](Cc2ccccc2)C(=O)NCCC(C)C)c1=O` ?
Result: 111% (inactive)

Query: Endpoint output: growth of `N#C/C(=C\c1c(-c2ccccc2)[nH]c2ccccc12)C(N)=O` . Value?
Result: 124% (inactive)

Query: I would be grateful if you could share the reported growth for `O=c1scc(-c2ccc(C(F)(F)F)cc2)s1` .
Result: 82.8% (inactive)

###

Tested on: OVCAR-8 ovarian
ASSAY_REMARKS: NCI-60 one-dose screen, 48 h (100 = growth as untreated, 0 = no growth, -100 = all killed)
TEST_SETTINGS: 10 µM unless noted
This is part of a sample that, as a whole, favours compounds with a hit. Of some 83,000 tested, about 20% had one in any assay.
Returns: string. Value is fulfilled if measured growth is below 40%, and not fulfilled if it is greater than or equal to it.

Query: Bench note: check whether `CC(=O)Oc1ccc(C)cc1C` shows growth below 40%
Result: not fulfilled

Query: Field: below-cutoff. Rule: recorded growth strictly less than 40%. Subject: `Oc1c(I)cc(I)cc1CNCc1ccccn1`
Result: fulfilled

Query: Consider `C=C(C)[C@@H]1CC[C@]2(CO)CC[C@]3(C)[C@H](CC[C@@H]4[C@@]5(C)CC[C@H](NCO)C(C)(C)[C@@H]5CC[C@]43C)[C@@H]12` . Does its growth lie strictly below 40%?
Result: fulfilled

Query: State whether 40% exceeds growth recorded for `O=C1/C=C/[C@@H](O)[C@@H]2C[C@@H](O)C[C@H]2/C=C/CCC[C@H](CCc2ccccc2)O1` .
Result: fulfilled

Query: Please state whether growth is below 40% for `CCn1cc(C(=O)NNC(=S)Nc2ccc(C)cc2)c(=O)c2ccc(C)nc21`
Result: not fulfilled

Query: Threshold test, growth < 40%: `CCc1ccc(CCCC(=O)O)cc1`
Result: not fulfilled

---
Query: Answer whether the compound CN(C)CC1CCC(CN(C)C)C1=O (centres undefined) has growth strictly less than 40%
Result: not fulfilled

Query: Find out if reported growth for `O=C(O)c1cn(C2CC2)c2cc(N3CCN(C(=O)N(c4ccccc4)c4nc(-c5ccccc5)cs4)CC3)c(F)cc2c1=O` is less than 40%
Result: fulfilled

Query: Given the entry `c1csc(-c2ccc(CNc3c4ccccc4nc4ccccc34)cc2)c1` , would its reported growth be below 40%?
Result: not fulfilled

Query: Determine whether this compound shows growth lower than 40% (ties excluded): `Ic1ccc(OCCCCn2ccnc2)cc1`
Result: not fulfilled

Query: Criterion: growth strictly below 40%. Is it met by `COc1ccc(C(=O)C/C(=C\c2ccc(Cl)cc2)C(=O)NCc2ccccc2)cc1` ?
Result: not fulfilled

Query: Does `Clc1ccc2c(c1)C(c1c[nH]c3ccccc13)(c1c[nH]c3ccccc13)CCO2` have growth strictly under 40%?
Result: not fulfilled

Query: Dear reviewer, please state whether `COC(=O)[C@]12CCC(C)(C)C[C@H]1[C@H]1/C(=N/OCCc3nn[nH]n3)C[C@@H]3[C@@]4(C)CC[C@H](OC(C)=O)C(C)(C)[C@@H]4CC[C@@]3(C)[C@]1(C)CC2` has growth strictly beneath 40%.
Result: fulfilled

Query: Is 40% strictly greater than the compound's reported growth? compound: `CC/C=C\C[C@H](O)C/C=C1/C(=O)C=C[C@@H]1C/C=C\CCCC(=O)N(C)C`
Result: fulfilled

Query: API: query returns whether the compound falls strictly under 40% in growth. Query: O=CN1N=C(c2cccc(Nc3ccnc4cc(Cl)ccc34)c2)CC1c1ccccc1 (centres undefined)
Result: fulfilled

Query: Would you kindly verify if growth of `COc1cc2ncnc(Nc3ccc(S(=O)(=O)Nc4cc(C)on4)cc3)c2cc1OCCCN1CCN(c2ccc(F)cc2)CC1` is strictly less than 40%?
Result: not fulfilled

###

Tested on: OVCAR-4 ovarian
ASSAY_REMARKS: NCI-60 one-dose screen, 48 h (100 = growth as untreated, 0 = no growth, -100 = all killed)
TEST_SETTINGS: 10 µM unless noted
The panel holds about 83,000 compounds, 20% with a hit somewhere; the sample as a whole holds those more often.
Below is a list of entries, each paired with its recorded growth value.
Give the value in % but do not write % after it.

Query: Find the recorded growth belonging to CCCCCCCCCCC(CN(CC)CC)C(O)c1ccccc1 (centres undefined) and report it.
Result: 47.5

Query: What growth value was documented for this compound, CCC(C)(C)C(=O)O[C@H]1C[C@@H](C)C=C2C=C[C@H](C)[C@H](CC[C@@H]3CC(SCCN)CC(=O)O3)[C@H]21 (some centres undefined) ?
Result: 101

Query: // growth lookup, key: `CCCCNC(=O)CC1=C(C)/C(=C/c2[nH]c(-c3ccc[nH]3)cc2OC)N=C1C`
Result: 39.7

Query: Bench note: what growth did `CN(c1cc2ncc(=O)[nH]c2cc1NC(N)=NCc1ccc(Cl)cc1)C1CCCCC1` show?
Result: 72.7

Query: Recorded growth for `CC(=O)O[C@@H]1C[C@]2(C(C)C)O[C@@]1(C)[C@@H]1CCC(C)=C1[C@@H]2OC(=O)/C=C/c1ccccc1` , please?
Result: 79.1

Query: Recorded growth of `COc1cc(-c2nccc3[nH]c(-c4ccc5cc[nH]c5c4)nc23)cc(OC)c1OC` , please.
Result: 39.3

Query: I would be grateful if you could share the reported growth for `O=C1/C(=C/c2ccccc2O)CC/C1=C\c1ccccc1O` .
Result: 63.4

Query: Any idea what growth was measured for `Cc1cccc(/C=C2\CN(C(=O)OC(C)(C)C)C/C(=C\c3cccc(C)c3)C2=O)c1` ?
Result: 89.2

Query: What measured growth goes with `COC(=O)c1c(C)c2n(c1C)C(=O)C(c1ccccc1)=C2` ?
Result: 71.2

###

System: SR leukemia
ASSAY_REMARKS: NCI-60 one-dose screen, 48 h (100 = growth as untreated, 0 = no growth, -100 = all killed)
TEST_SETTINGS: 10 µM unless noted
This is part of a sample that, as a whole, favours compounds with a hit. Of some 83,000 tested, about 20% had one in any assay.
Class true (1): growth at least 80%. Class false (0): growth below 80%.

Query: Does `CCOC(=O)c1nn(-c2ccc(S(N)(=O)=O)cc2)c2nc(C)cc(=O)n12` have a reported growth of at least 80%?
Result: true (1)

Query: Reported growth reaches at least 80% for `O=C(/C=C/c1ccco1)Nc1ncc(Cc2cccc(C(F)(F)F)c2)s1` ?
Result: false (0)

Query: Is growth at least 80%? Consider `C#CCOC(=O)/C=C/c1cn(-c2ccccc2)nc1-c1ccc(OC)cc1`
Result: true (1)

Query: Is growth at least 80%? Consider `COc1ccc(C2=C(Br)C(=O)c3nc(C)ccc3C2=O)cc1`
Result: false (0)

***
Query: Determine whether this compound has growth no lower than 80%: `N#Cc1c(-c2ccccc2)cc(-c2ccccc2)n(CCCC(=O)Nc2ccccc2N)c1=O`
Result: false (0)

Query: Is reported growth greater than or equal to 80% here: `CN(C)CCNC(=O)c1cc2c3cc(Cl)ccc3[nH]c2c2ncccc12`
Result: false (0)

Query: Evaluate `O=S(=O)(c1ccccc1)n1cc2c(c1)-c1nc(Nc3ncccn3)sc1CC2` : growth at minimum 80%?
Result: false (0)

Hello, the source for this data is PubChem BioAssay (NCI), in case you need it.
